- procedureSummary: The drug is tested on the gut metagenome community of MV04 with ENA study accession number: PRJEB31790 and ENA sample accession number: SAMEA5537485 for biotransformation. The drug concentrations were measured over 9 timepoints collected between 0 and 24 hours of incubation by liquid-chromatography-coupled mass spectrometry (LC–MS)
- Type: ADME
- Set-up: dose 2 uM, timepoint 0, 1, 2, 4, 6, 8, 12, 18, 24 hours
- experimentalParameters: 2 µM
propertyName: Bacterial Biotransformation

> print(dat)
                                   molecule                 propertyname             valuereported
1  COc1ccc([C@@H]2Sc3ccccc3N(CCN(C)C)C(=O)[C@@H]2OC(C)=O)cc1  Bacterial Biotransformation  Compound NOT metabolized
2  C[C@@H]1C[C@H]2[C@@H]3CCC4=CC(=O)C=C[C@]4(C)[C@@]3(F)[C@@H](O)C[C@]2(C)[C@@]1(O)C(=O)CO  Bacterial Biotransformation  Compound NOT metabolized
3     CC(=O)OCC(CCn1cnc2cnc(N)nc21)COC(C)=O  Bacterial Biotransformation      Compound metabolized
4  C#C[C@]1(OC(C)=O)CC[C@H]2[C@@H]3CCC4=CC(=O)CC[C@@H]4[C@H]3CC[C@@]21C [NORETHINDRONE ACETATE]  Bacterial Biotransformation      Compound metabolized

====

- targetUnderTest: Steroid 5-alpha reductase C-terminal domain-containing protein (Phocaeicola dorei, UniProt B6W0N3)
- Sequence (B6W0N3 whole entry): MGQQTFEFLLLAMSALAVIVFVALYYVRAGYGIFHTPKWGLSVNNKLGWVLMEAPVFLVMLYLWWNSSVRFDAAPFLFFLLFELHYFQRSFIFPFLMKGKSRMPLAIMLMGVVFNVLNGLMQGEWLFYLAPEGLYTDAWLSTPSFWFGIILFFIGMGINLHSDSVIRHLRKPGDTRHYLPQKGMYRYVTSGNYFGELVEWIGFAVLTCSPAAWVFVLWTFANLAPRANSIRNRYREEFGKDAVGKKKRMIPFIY
- procedureSummary: The drug is tested on Bacteroides dorei strain: DSM17855 for biotransformation. The drug concentrations were measured before and after a 12-h incubation by liquid-chromatography-coupled mass spectrometry (LC–MS)
- Assay type: ADME
- Set-up: dose 2 uM
- experimentalParameters: 2 µM
propertyName: Bacterial Biotransformation

compound	valueReported
C#C[C@]1(O)CC[C@H]2[C@@H]3CCC4=Cc5oncc5C[C@]4(C)[C@H]3CC[C@@]21C [DANAZOL]	Compound NOT metabolized
N#Cc1ccc2c(c1)N(CCCN1CCC(O)CC1)c1ccccc1S2 [PERICIAZINE]	Compound NOT metabolized
C[C@]12CCC(=O)C=C1[C@@H]1C[C@@H]1[C@H]1[C@@H]3[C@@H]4C[C@@H]4[C@@]4(CCC(=O)O4)[C@@]3(C)CC[C@@H]12 [DROSPIRENONE]	Compound metabolized
O=C(O)c1cc(/N=N/c2ccc(S(=O)(=O)Nc3ccccn3)cc2)ccc1O [SULFASALAZINE]	Compound NOT metabolized
CC(=O)SCC(Cc1ccccc1)C(=O)NCC(=O)OCc1ccccc1 (stereo not given) [RACECADOTRIL]	Compound NOT metabolized
CC(=O)OCC(=O)[C@@]12N=C(C)O[C@@H]1C[C@H]1[C@@H]3CCC4=CC(=O)C=C[C@]4(C)[C@H]3[C@@H](O)C[C@@]12C [DEFLAZACORT]	Compound NOT metabolized
C[C@@H]1CC[C@H]2[C@@H](C)C(=O)O[C@@H]3O[C@@]4(C)CC[C@@H]1[C@]32OO4 [ARTEMISININ]	Compound NOT metabolized
C#C[C@]1(OC(C)=O)CC[C@H]2[C@@H]3CCC4=CC(=O)CC[C@@H]4[C@H]3CC[C@@]21C [NORETHINDRONE ACETATE]	Compound metabolized
CC(=O)OCC(CCn1cnc2cnc(N)nc21)COC(C)=O [FAMCICLOVIR]	Compound NOT metabolized
COc1ccc([C@@H]2Sc3ccccc3N(CCN(C)C)C(=O)[C@@H]2OC(C)=O)cc1 [DILTIAZEM]	Compound NOT metabolized
CCN(CC)C(=O)/C(C#N)=C/c1cc(O)c(O)c([N+](=O)[O-])c1 [ENTACAPONE]	Compound NOT metabolized
CC(=O)Oc1ccc(C(c2ccc(OC(C)=O)cc2)c2ccccn2)cc1 [BISACODYL]	Compound NOT metabolized
C#C[C@]1(O)CC[C@H]2[C@@H]3CCC4=CC(=O)CC[C@@H]4[C@H]3CC[C@@]21CC [LEVONORGESTREL]	Compound metabolized
COc1ccnc(C[S+]([O-])c2nc3ccc(OC(F)F)cc3[nH]2)c1OC (stereo not given) [PANTOPRAZOLE]	Compound NOT metabolized
CC(=O)OCC(=O)[C@@]1(OC(C)=O)[C@@H](C)C[C@H]2[C@@H]3C[C@H](F)C4=CC(=O)C=C[C@]4(C)[C@@]3(F)[C@@H](O)C[C@@]21C [DIFLORASONE DIACETATE]	Compound NOT metabolized

====

- procedureSummary: The drug is tested on Ruminococcus gnavus strain: ATCC29149 for biotransformation. The drug concentrations were measured before and after a 12-h incubation by liquid-chromatography-coupled mass spectrometry (LC–MS)
- experimentalParameters: mediterraneibacter gnavus, 2 µM
Non-standard residues stand in square brackets, D forms with d. Residues, ends and D or L forms follow the SMILES beside them. pGlu = O=C1CC[C@@H](C(=O)O)N1; Thz = O=C(O)[C@@H]1CSCN1
propertyName: Bacterial Biotransformation

molecule	valueReported
COc1ccc2c(c1)c(CC(=O)O)c(C)n2C(=O)c1ccc(Cl)cc1 [INDOMETHACIN]	Compound NOT metabolized
Nc1ccc(/N=N/c2ccccc2)c(N)n1 [PHENAZOPYRIDINE]	Compound metabolized
Nc1nc2ccc(OC(F)(F)F)cc2s1 [RILUZOLE]	Compound NOT metabolized
CN1CCN(C(=O)O[C@H]2c3nccnc3C(=O)N2c2ccc(Cl)cn2)CC1 [ESZOPICLONE]	Compound NOT metabolized
CNC(=C[N+](=O)[O-])NCCSCc1ccc(CN(C)C)o1 [RANITIDINE]	Compound metabolized
Br.CN1CCC[C@@H]1Cc1c[nH]c2ccc(CCS(=O)(=O)c3ccccc3)cc12 [ELETRIPTAN HYDROBROMIDE]	Compound NOT metabolized
CCCC(C)(COC(N)=O)COC(=O)NC(C)C (configuration not stated) [CARISOPRODOL]	Compound NOT metabolized
CC(=O)OCC(=O)NCCCOc1cccc(CN2CCCCC2)c1 [ROXATIDINE ACETATE]	Compound NOT metabolized
Cc1nc2n(c(=O)c1CCN1CCC(c3noc4cc(F)ccc34)CC1)CCCC2O (configuration not stated) [PALIPERIDONE]	Compound metabolized
O=C([O-])C[C@H](O)C[C@H](O)/C=C/c1c(C2CC2)nc2ccccc2c1-c1ccc(F)cc1.O=C([O-])C[C@H](O)C[C@H](O)/C=C/c1c(C2CC2)nc2ccccc2c1-c1ccc(F)cc1.[Ca+2] [PITAVASTATIN CALCIUM]	Compound NOT metabolized
CCCC(=O)Nc1ccc(OCC(O)CNC(C)C)c(C(C)=O)c1 (configuration not stated) [ACEBUTOLOL]	Compound NOT metabolized
CC(=O)O[C@]1(C(C)=O)CC[C@H]2[C@@H]3C=C(Cl)C4=CC(=O)[C@@H]5C[C@@H]5[C@]4(C)[C@H]3CC[C@@]21C [CYPROTERONE ACETATE]	Compound NOT metabolized
O=C1CC[C@@H](C(=O)N2CSC[C@H]2C(=O)O)N1 [PIDOTIMOD] ([pGlu]-[Thz]-OH)	Compound NOT metabolized
CN1CCc2c(c3ccccc3n2Cc2ccccc2)C1.CN1CCc2c(c3ccccc3n2Cc2ccccc2)C1.O=S(=O)(O)c1cccc2c(S(=O)(=O)O)cccc12	Compound NOT metabolized
O=C(CCCN1CCC2(CC1)C(=O)NCN2c1ccccc1)c1ccc(F)cc1 [SPIPERONE]	Compound NOT metabolized
COc1ccc2[nH]c([S+]([O-])Cc3ncc(C)c(OC)c3C)nc2n1 (configuration not stated) [TENATOPRAZOLE]	Compound metabolized
CC(C)(C)NC(=O)[C@H]1CC[C@H]2[C@@H]3CC[C@H]4NC(=O)C=C[C@]4(C)[C@H]3CC[C@]12C [FINASTERIDE]	Compound NOT metabolized

====

- procedureSummary: The drug is tested on Ruminococcus gnavus strain: ATCC29149 for biotransformation. The drug concentrations were measured before and after a 12-h incubation by liquid-chromatography-coupled mass spectrometry (LC–MS)
- experimentalParameters: mediterraneibacter gnavus, 2 µM
propertyName: Bacterial Biotransformation

compound	valueReported
COc1ccc2c3c1O[C@H]1C[C@@H](O)C=C[C@@]31CCN(C)C2	Compound NOT metabolized
C=CC[C@@H]1/C=C(\C)C[C@H](C)C[C@H](OC)[C@H]2O[C@@](O)(C(=O)C(=O)N3CCCC[C@H]3C(=O)O[C@H](/C(C)=C/[C@@H]3CC[C@@H](O)[C@H](OC)C3)[C@H](C)[C@@H](O)CC1=O)[C@H](C)C[C@@H]2OC.O	Compound metabolized
CC[C@H](C)C(=O)O[C@H]1C[C@@H](C)C=C2C=C[C@H](C)[C@H](CC[C@@H]3C[C@@H](O)CC(=O)O3)[C@H]21	Compound NOT metabolized
CNC(=C[N+](=O)[O-])NCCSCc1csc(CN(C)C)n1	Compound metabolized
CCN(CC)CCNC(C(=O)OCCC(C)C)c1ccccc1.Cl.Cl (configuration not stated)	Compound NOT metabolized
O=c1[nH]c2ccccc2n1CCCN1CCC(n2c(=O)[nH]c3cc(Cl)ccc32)CC1	Compound NOT metabolized
CC(C)(C)NCC(O)COc1cccc2c1CC(O)C(O)C2 (configuration not stated)	Compound NOT metabolized
COc1ccccc1OCC(O)COC(N)=O (configuration not stated)	Compound NOT metabolized
CN(C/C=C/C#CC(C)(C)C)Cc1cccc2ccccc12	Compound NOT metabolized
O=C(Nc1ccccc1)OCC(CN1CCCCC1)OC(=O)Nc1ccccc1 (configuration not stated)	Compound NOT metabolized
CC[C@@H](CO)NC(=O)[C@@H]1C=C2c3cccc4c3c(cn4C)C[C@H]2N(C)C1.O=C(O)/C=C\C(=O)O [METHYSERGIDE MALEATE]	Compound metabolized
Cc1ccc(S(=O)(=O)NC(=O)NN2CCCCCC2)cc1 [TOLAZAMIDE]	Compound NOT metabolized
CN1CCN(C2=Nc3ccccc3Oc3ccc(Cl)cc32)CC1.O=C(O)CCC(=O)O [LOXAPINE SUCCINATE]	Compound NOT metabolized
Nc1nnc(-c2cccc(Cl)c2Cl)c(N)n1	Compound NOT metabolized
COc1ccnc(C[S+]([O-])c2nc3ccc(OC(F)F)cc3[nH]2)c1OC (configuration not stated)	Compound metabolized
Cc1cc2c(cc1S(N)(=O)=O)S(=O)(=O)CCC2	Compound NOT metabolized
COC(=O)C1=C(C)NC(C)=C(C(=O)OC(C)C)C1c1cccc2nonc12 (configuration not stated)	Compound NOT metabolized
CN1CCC(=C2c3ccccc3CCc3cccnc32)CC1.O=C(O)/C=C\C(=O)O.O=C(O)/C=C\C(=O)O [AZATADINE MALEATE]	Compound NOT metabolized
CN(C)C(=O)Oc1cccc([N+](C)(C)C)c1.[Br-] [NEOSTIGMINE BROMIDE]	Compound NOT metabolized
CCOc1ccc(NC(C)=O)cc1	Compound NOT metabolized
COC(=O)[C@H](c1ccccc1Cl)N1CCc2sccc2C1.O=S(=O)(O)O [CLOPIDOGREL BISULFATE]	Compound NOT metabolized
CC(=O)OCC(=O)[C@@]12N=C(C)O[C@@H]1C[C@H]1[C@@H]3CCC4=CC(=O)C=C[C@]4(C)[C@H]3[C@@H](O)C[C@@]12C	Compound metabolized
CCN(CC)CCOC(=O)C(Cc1cccc2ccccc12)CC1CCCO1.O=C(O)C(=O)O (configuration not stated) [NAFRONYL OXALATE]	Compound NOT metabolized
CC(O)(CS(=O)(=O)c1ccc(F)cc1)C(=O)Nc1ccc(C#N)c(C(F)(F)F)c1 (configuration not stated) [BICALUTAMIDE]	Compound NOT metabolized
CC(C)c1c(CN(C)C(C)Cc2ccccc2)n(C)n(-c2ccccc2)c1=O (configuration not stated)	Compound NOT metabolized
CC(C)(C(=O)O)c1ccc(C(O)CCCN2CCC(C(O)(c3ccccc3)c3ccccc3)CC2)cc1 (configuration not stated) [FEXOFENADINE]	Compound NOT metabolized
CCCc1nc2c(C)cc(-c3nc4ccccc4n3C)cc2n1Cc1ccc(-c2ccccc2C(=O)O)cc1	Compound NOT metabolized
N#Cc1ccc2c(c1)N(CCCN1CCC(O)CC1)c1ccccc1S2	Compound NOT metabolized
CNCC[C@H](Oc1cccc2ccccc12)c1cccs1	Compound NOT metabolized
CC(CN1c2ccccc2Sc2ccccc21)N(C)C (configuration not stated)	Compound NOT metabolized
CC(=O)OCC(=O)[C@@]1(OC(C)=O)[C@@H](C)C[C@H]2[C@@H]3C[C@H](F)C4=CC(=O)C=C[C@]4(C)[C@@]3(F)[C@@H](O)C[C@@]21C [DIFLORASONE DIACETATE]	Compound NOT metabolized
CC(C)(C)NC[C@H](O)COc1ccccc1C1CCCC1.CC(C)(C)NC[C@H](O)COc1ccccc1C1CCCC1.O=S(=O)(O)O [PENBUTOLOL SULFATE]	Compound NOT metabolized
